Source listed as paper PMC9229919.

For each of the compounds below, state its RF, Dioxane/Water/Hydrochloric acid (conc.), mobile phase VI.
test.details: Reverse-phase thin-layer chromatographic lipophilicity (RF, RM0)
Type: physicochemical
test.context: RP-18 silica; VI = 40%Dioxane/55%H2O/5%HCl
One number for each entry.

Please review the entries below; each comes with its answer.
* Clc1ccc2c(Nc3cccc4c(NCCC56CC7CC(CC(C7)C5)C6)cccc34)ccnc2c1 | 0.13
* Clc1ccc2c(NCCCNCC34CC5CC(CC(C5)C3)C4)ccnc2c1 | 0.4
* Clc1ccc2c(Nc3cccc(NCC45CC6CC(CC(C6)C4)C5)c3)ccnc2c1 | 0.3
* CC(CCNCC12CC3CC(CC(C3)C1)C2)Nc1ccnc2cc(C(F)(F)F)ccc12 (stereo not drawn) | 0.33
* Clc1ccc2c(Nc3ccc(NCC45CC6CC(CC(C6)C4)C5)cc3)ccnc2c1 | 0.35

Switching to the query record.
q: What value of RF, Dioxane/Water/Hydrochloric acid (conc.), mobile phase VI has been recorded for this entry: Clc1ccc2c(NCCN(CCC34CC5CC(CC(C5)C3)C4)CCC34CC5CC(CC(C5)C3)C4)ccnc2c1
a: 0

====

test.details: Reverse-phase thin-layer chromatographic lipophilicity (RF, RM0)
Type: physicochemical
test.context: RP-18 silica; III = 70%Dioxane/25%H2O/5%HCl
attribute.measured: RF, Dioxane/Water/Hydrochloric acid (conc.), mobile phase III
Give bare numbers.

Please review the entries below; each comes with its answer.
* Clc1ccc2c(Nc3cccc(NCC45CC6CC(CC(C6)C4)C5)c3)ccnc2c1 | 0.71
* Clc1ccc2c(NCCN(CCC34CC5CC(CC(C5)C3)C4)CCC34CC5CC(CC(C5)C3)C4)ccnc2c1 | 0.55
* Clc1ccc2c(NCCNCCC34CC5CC(CC(C5)C3)C4)ccnc2c1 | 0.68

Could you tell me RF, Dioxane/Water/Hydrochloric acid (conc.), mobile phase III for each of these compounds? They are listed below.
1. CC(CCNCC12CC3CC(CC(C3)C1)C2)Nc1ccnc2ccccc12 (stereo not drawn)
2. Clc1ccc2c(NCCCNCC34CC5CC(CC(C5)C3)C4)ccnc2c1
3. CC(CCNCC12CC3CC(CC(C3)C1)C2)Nc1ccnc2cc(Cl)ccc12 (stereo not drawn)

a:
[0.7, 0.73, 0.72]

====

For each of the molecules below, state its RF, Acetone/Water/Hydrochloric acid (conc.), mobile phase V.
test.details: Reverse-phase thin-layer chromatographic lipophilicity (RF, RM0)
Format: physicochemical
test.context: RP-18 silica; V = 60%AC/35%H2O/5%HCl
Answers are plain numbers.

Please review the entries below; each comes with its answer.
- Clc1ccc2c(NCCCN3CCN(CCCNCCC45CC6CC(CC(C6)C4)C5)CC3)ccnc2c1 [Compound 23]: 0.48
- Clc1ccc2c(NCCCNCC34CC5CC(CC(C5)C3)C4)ccnc2c1 [Compound 2]: 0.5
- Clc1ccc2c(N3CCN(CC45CC6CC(CC(C6)C4)C5)CC3)ccnc2c1 [Compound 20]: 0.58
- Clc1ccc2c(NCCNCC34CC5CC(CC(C5)C3)C4)ccnc2c1 [Compound 1]: 0.51

Switching to the query record.
q: What value of RF, Acetone/Water/Hydrochloric acid (conc.), mobile phase V has been recorded for this entry: FC(F)(F)c1ccc2c(NCCCNCC34CC5CC(CC(C5)C3)C4)ccnc2c1 [Compound 7]
a: 0.42

====

test.details: Reverse-phase thin-layer chromatographic lipophilicity (RF, RM0)
Format: physicochemical
test.context: RP-18 silica; VII = 60%MeOH/35%H2O/5%HCl
Label true (1) when RF, Methanol/Water/Hydrochloric acid (conc.), mobile phase VII is at or above 0.2; otherwise label false (0).

- CC(CCNCC12CC3CC(CC(C3)C1)C2)Nc1ccnc2ccccc12 (centres unmarked): true (1)

q: Does the molecule CC(CCNCCC12CC3CC(CC(C3)C1)C2)Nc1ccnc2ccccc12 (centres unmarked) have recorded RF, Methanol/Water/Hydrochloric acid (conc.), mobile phase VII that is 0.2 or more?
a: true (1)

q: And Clc1ccc2c(NCCN(CCC34CC5CC(CC(C5)C3)C4)CCC34CC5CC(CC(C5)C3)C4)ccnc2c1 ?
a: false (0)

q: And Clc1ccc2c(Nc3cccc4c(NCCC56CC7CC(CC(C7)C5)C6)cccc34)ccnc2c1 ?
a: false (0)

q: And Clc1ccc2c(NCCCNCC34CC5CC(CC(C5)C3)C4)ccnc2c1 ?
a: true (1)

q: And FC(F)(F)c1ccc2c(NCCNCC34CC5CC(CC(C5)C3)C4)ccnc2c1 ?
a: true (1)

q: And Clc1ccc2c(N3CCN(CCC45CC6CC(CC(C6)C4)C5)CC3)ccnc2c1 ?
a: true (1)

q: And Clc1ccc2c(NCCCCCCCCNCC34CC5CC(CC(C5)C3)C4)ccnc2c1 ?
a: false (0)
